- Tested on: HT-29
- protocol.text: Cytotoxicity against human HT-29 cells assessed as cell viability after 24 hrs by MTT assay
- Assay type: functional, cell-based
- condition.notes: HT-29, 24 h
pIC50: −log10 of the molar value.
Lab note: compare pIC50 against 5. Equal or greater, write label 1. Smaller, write label 0.

{"columns": ["mol.smiles", "category"],
 "data": [
  ["COc1ccc(-c2nc3ccc(Br)cn3c2Nc2c(C)cccc2C)c(OC)c1", "label 0"]
]}

Please examine the following record next.
Exercise: Is it the case that `COc1ccc(OC)c(-c2nc3ccc(Br)cn3c2NCc2ccccc2)c1` has pIC50 reaching or exceeding 5?
Key: label 1

###

- Tested on: HT-29
- protocol.text: Induction of apoptosis in human HT-29 cells assessed as early apoptotic cells after 24 hrs by annexin V propidium iodide staining based flow cytometric analysis
- Assay type: functional
- Design: concentration or dose not given beside the values
Catalogue of Activity readings, one per entry.
Give a bare numeral; the unit % is implied.

Example cases with answers are listed next.
{"columns": ["mol.smiles", "units.label", "quantitative.result"],
 "data": [
  ["COc1ccc(-c2nc3ccc(Br)cn3c2Nc2c(C)cccc2C)cc1OC", "%", 18.29],
  ["COc1ccc(-c2nc3ccc(C)cn3c2Nc2c(C)cccc2C)c(OC)c1", "%", 43.28],
  ["COc1ccc(OC)c(-c2nc3ccc(Br)cn3c2NCc2ccccc2)c1", "%", 28.18],
  ["CC[C@@]1(O)C(=O)OCc2c1cc1n(c2=O)Cc2cc3ccccc3nc2-1", "%", 27.27],
  ["COc1ccc(-c2nc3ccc(Br)cn3c2Nc2c(C)cccc2C)c(OC)c1", "%", 42.71],
  ["NC(=O)c1ccc2nc(-c3ccc(OCc4ccccc4)cc3OCc3ccccc3)c(NC3CCCCC3)n2c1", "%", 22.96],
  ["COc1ccc(-c2nc3ccc(C)cn3c2Nc2c(C)cccc2C)cc1OC", "%", 18.11]
]}

Then this molecule:
Exercise: Entry `COc1ccc(-c2nc3ccc(-c4ccccc4)cn3c2Nc2c(C)cccc2C)cc1OC` has what Activity?
Key: 27.06

###

Entries and their measured Activity follow.
- System: HT-29
- protocol.text: Induction of mitochondrial membrane depolarization in human HT-29 cells after 24 hrs by JC1 staining-based flow cytometric analysis
- Assay type: functional
- Design: concentration or dose not given beside the values
Express the result in % but write the number alone.

Example compounds with recorded Activity:
{"columns": ["mol.smiles", "units.label", "quantitative.result"],
 "data": [
  ["COc1ccc(OC)c(-c2nc3ccc(Br)cn3c2NCc2ccccc2)c1", "%", 89.6],
  ["COc1ccc(-c2nc3ccc(C)cn3c2Nc2c(C)cccc2C)c(OC)c1", "%", 79.62],
  ["COc1ccc(-c2nc3ccc(C)cn3c2Nc2c(C)cccc2C)cc1OC", "%", 85.92],
  ["COc1ccc(-c2nc3ccc(-c4ccccc4)cn3c2Nc2c(C)cccc2C)cc1OC", "%", 84.29],
  ["CC[C@@]1(O)C(=O)OCc2c1cc1n(c2=O)Cc2cc3ccccc3nc2-1", "%", 44]
]}

Exercise: Consider the compound `NC(=O)c1ccc2nc(-c3ccc(OCc4ccccc4)cc3OCc3ccccc3)c(NC3CCCCC3)n2c1` and give its measured Activity.
Key: 83.33

Exercise: // next record `COc1ccc(-c2nc3ccc(Br)cn3c2Nc2c(C)cccc2C)cc1OC`
Key: 63.09

Exercise: Now try `COc1ccc(-c2nc3ccc(Br)cn3c2Nc2c(C)cccc2C)c(OC)c1` .
Key: 65.3
